test system: A549; test: Cytotoxicity against human A549 cells; format: functional; details: read-out: ED50 (the source's name)
We label by threshold. Values of EC50 strictly beneath 900 nM are Met. Values of 900 nM and up are Not met.

INSERT INTO assay_data (compound, category_label) VALUES
  ('CC[C@@](C)(OC(C)=O)C(=O)O[C@H]1C(=O)O[C@@H]2C[C@H]3C(C)=CC(=O)[C@@H](O)[C@]3(C)[C@H]3[C@@]4(O)OC[C@]32[C@@H]1[C@@H](C)[C@H]4O', 'Met');

Prompt: State whether 900 nM exceeds EC50 recorded for "CC[C@](C)(OC(C)=O)C(=O)O[C@H]1C(=O)O[C@@H]2C[C@H]3C(C)=C[C@H](O)[C@@H](O)[C@]3(C)[C@H]3[C@@]4(O)OC[C@]32[C@@H]1[C@@H](C)[C@H]4O" .
Completion: Not met

Prompt: State whether 900 nM exceeds EC50 recorded for "CC[C@](C)(OC(C)=O)C(=O)O[C@H]1C(=O)O[C@@H]2C[C@H]3C(C)=CC(=O)[C@@H](O)[C@]3(C)[C@H]3[C@@]4(O)OC[C@]32[C@@H]1[C@@H](C)[C@H]4O" .
Completion: Met

Prompt: State whether 900 nM exceeds EC50 recorded for CCC(C)C(=O)O[C@H]1C(=O)O[C@@H]2C[C@H]3C(C)=C[C@H](O)[C@@H](O)[C@]3(C)[C@H]3[C@@]4(O)OC[C@]32[C@@H]1[C@@H](C)[C@H]4O (some centres not stated) .
Completion: Not met

Prompt: State whether 900 nM exceeds EC50 recorded for "CC(=O)O[C@H]1C(=O)[C@@]2(C)[C@H]([C@H](OC(=O)c3ccccc3)[C@]3(O)C[C@H](OC(=O)[C@H](O)[C@@H](NC(=O)c4ccccc4)c4ccccc4)C(C)=C1C3(C)C)[C@]1(OC(C)=O)CO[C@@H]1C[C@@H]2O" .
Completion: Met

Prompt: State whether 900 nM exceeds EC50 recorded for CCC(C)C(=O)O[C@H]1C(=O)O[C@@H]2C[C@H]3C(C)=CC(=O)[C@@H](O)[C@]3(C)[C@H]3[C@]4(O)OC[C@]32[C@@H]1[C@@H](C)[C@H]4O (some centres not stated) .
Completion: Met

----------
test: Cytotoxicity against human KBVIN cells; format: functional; settings: read-out: ED50 (the source's name)
The following molecules are listed with their measured EC50 values.
Note: unit nM is implicit; provide only the numeric part.

INSERT INTO measurements (molecule, reported_measurement) VALUES
  ('CCC(C)C(=O)O[C@H]1C(=O)O[C@@H]2C[C@H]3C(C)=CC(=O)[C@@H](O)[C@]3(C)[C@H]3[C@]4(O)OC[C@]32[C@@H]1[C@@H](C)[C@H]4O (stereo not given in full)', 370);

Prompt: Fill blank: measured EC50 of the molecule "CC[C@@](C)(OC(C)=O)C(=O)O[C@H]1C(=O)O[C@@H]2C[C@H]3C(C)=CC(=O)[C@@H](O)[C@]3(C)[C@H]3[C@@]4(O)OC[C@]32[C@@H]1[C@@H](C)[C@H]4O" is ____.
Completion: 440

Prompt: Fill blank: measured EC50 of the molecule "CC[C@](C)(OC(C)=O)C(=O)O[C@H]1C(=O)O[C@@H]2C[C@H]3C(C)=CC(=O)[C@@H](O)[C@]3(C)[C@H]3[C@@]4(O)OC[C@]32[C@@H]1[C@@H](C)[C@H]4O" is ____.
Completion: 420

Prompt: Fill blank: measured EC50 of the molecule "CC[C@](C)(O)C(=O)O[C@H]1C(=O)O[C@@H]2C[C@H]3C(C)=CC(=O)[C@@H](O)[C@]3(C)[C@H]3[C@@]4(O)OC[C@]32[C@@H]1[C@@H](C)[C@H]4O" is ____.
Completion: 1240
